Test: Oral bioavailability in Sprague-Dawley rat at 10 mg/kg measured upto 24 hrs by LC-MS/MS analysis
Format: ADME, organism-based
Conditions: Sprague-Dawley, in vivo
measured metric: bioavailability (%)
Return type: number; implicit unit %.

[in] Please indicate bioavailability recorded for CCn1c(CO)nn(-c2nc(O[C@@H](C)C(F)(F)F)c(C(=O)Nc3c(C)cnc(OC)c3Cl)cc2F)c1=O
[out] 106

====

Entries annotated with measured bioavailability
Assay: Oral bioavailability in C57BL/6 mouse at 10 mg/kg measured upto 24 hrs by LC-MS/MS analysis
Type: ADME, organism-based
Settings: in vivo
Return type: number; implicit unit %.

CCn1c(CO)nn(-c2nc(O[C@@H](C)C(F)(F)F)c(C(=O)Nc3c(C)ccnc3Cl)cc2F)c1=O: 103

// moving on: another record for bioavailability
[in] Please indicate bioavailability recorded for CCn1c(CO)nn(-c2nc(O[C@@H](C)C(F)(F)F)c(C(=O)Nc3c(C)cnc(OC)c3Cl)cc2F)c1=O
[out] 110

====

Entries annotated with measured CLH
Assay: Intrinsic clearance in rat hepatocytes measured per 10^6 cells
Format: ADME, cell-based, Hepatocyte
Return type: number; implicit unit µL/min/1e6 cells.

CCn1c(CO)nn(-c2nc(O[C@@H](C)C(F)(F)F)c(C(=O)Nc3c(C)ccnc3Cl)cc2F)c1=O: 5.2

// moving on: another record for CLH
[in] Please indicate CLH recorded for CCn1c(CO)nn(-c2nc(O[C@@H](C)C(F)(F)F)c(C(=O)Nc3c(C)cnc(OC)c3Cl)cc2F)c1=O
[out] 6.2

====

Biological target: Cytochrome P450 3A4 (Homo sapiens)
Sequence (P08684 whole entry): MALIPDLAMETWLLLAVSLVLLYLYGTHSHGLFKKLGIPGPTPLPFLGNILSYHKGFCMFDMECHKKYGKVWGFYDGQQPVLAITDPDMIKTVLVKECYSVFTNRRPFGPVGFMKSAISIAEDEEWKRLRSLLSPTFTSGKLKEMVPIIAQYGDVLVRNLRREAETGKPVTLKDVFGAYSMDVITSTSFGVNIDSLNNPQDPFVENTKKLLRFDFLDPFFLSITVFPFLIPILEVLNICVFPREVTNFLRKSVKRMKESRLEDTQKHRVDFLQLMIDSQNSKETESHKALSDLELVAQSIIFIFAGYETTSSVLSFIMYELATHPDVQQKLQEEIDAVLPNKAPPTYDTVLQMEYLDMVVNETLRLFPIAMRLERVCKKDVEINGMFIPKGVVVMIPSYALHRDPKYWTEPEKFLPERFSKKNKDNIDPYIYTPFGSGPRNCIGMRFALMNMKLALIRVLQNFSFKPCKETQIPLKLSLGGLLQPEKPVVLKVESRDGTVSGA
Assay: Inhibition of CYP3A4 in human liver microsomes using midazolam as substrate measured after 5 mins by LC-MS/MS analysis
Format: ADME, Microsome
measured metric: IC50

[in] Please indicate IC50 recorded for CCn1c(CO)nn(-c2nc(O[C@@H](C)C(F)(F)F)c(C(=O)Nc3c(C)cnc(OC)c3Cl)cc2F)c1=O
[out] > 10 µM

====

Assay: Tmax in Sprague-Dawley rat at 10 mg/kg, po or 2 mg/kg, iv measured upto 24 hrs by LC-MS/MS analysis
Format: ADME, organism-based
Conditions: in vivo
Entries annotated with measured Tmax
Return type: number; implicit unit h.

[in] Please indicate Tmax recorded for CCn1c(CO)nn(-c2nc(O[C@@H](C)C(F)(F)F)c(C(=O)Nc3c(C)cnc(OC)c3Cl)cc2F)c1=O
[out] 4

[in] Please indicate Tmax recorded for CCn1c(CO)nn(-c2nc(O[C@@H](C)C(F)(F)F)c(C(=O)Nc3c(C)ccnc3Cl)cc2F)c1=O
[out] 1.7

====

Entries annotated with measured half-life
Assay: Half life in C57BL/6 mouse at 10 mg/kg, po or 2 mg/kg, iv measured upto 24 hrs by LC-MS/MS analysis
Format: ADME, organism-based
Details: in vivo

CCn1c(CO)nn(-c2nc(O[C@@H](C)C(F)(F)F)c(C(=O)Nc3c(C)cnc(OC)c3Cl)cc2F)c1=O: 5 h

[in] Please indicate half-life recorded for CCn1c(CO)nn(-c2nc(O[C@@H](C)C(F)(F)F)c(C(=O)Nc3c(C)ccnc3Cl)cc2F)c1=O
[out] 2.3 h

====

Assay: Solubility of compound at pH 7 by HPLC analysis
Format: physicochemical
Conditions: buffer
measured metric: solubility (µM)
Return type: number; implicit unit µM.

CCn1c(CO)nn(-c2nc(OC(C)C)c(C(=O)Nc3c(F)cccc3Cl)cc2F)c1=O: 4
CCn1c(CO)nn(-c2nc(O[C@@H](C)C(F)(F)F)c(C(=O)Nc3c(C)cnc(OC)c3C)cc2F)c1=O: 373
CCn1c(CO)nn(-c2nc(O[C@@H](C)C(F)(F)F)c(C(=O)Nc3c(C)cnc(OC)c3Cl)cc2F)c1=O: 5

// moving on: another record for solubility
[in] Please indicate solubility recorded for CCn1c(CO)nn(-c2nc(O[C@@H](C)C(F)(F)F)c(C(=O)Nc3c(Cl)ccnc3Cl)cc2F)c1=O
[out] 381

====

Assay: Metabolic stability in monkey liver microsome assessed as intrinsic clearance pretreated for 5 mins followed by NADPH addition and measured upto 60 mins by HPLC-MS/MS analysis
Format: ADME, Macaca mulatta
Conditions: rhesus monkey, liver microsomes; time < 65 min; read-out: CLH
Entries annotated with measured CLint scaled
Return type: number; implicit unit mL/min/kg.

CCn1c(CO)nn(-c2nc(O[C@@H](C)C(F)(F)F)c(C(=O)Nc3c(C)cnc(OC)c3Cl)cc2F)c1=O: 5.3

// moving on: another record for CLint scaled
[in] Please indicate CLint scaled recorded for CCn1c(CO)nn(-c2nc(O[C@@H](C)C(F)(F)F)c(C(=O)Nc3c(C)ccnc3Cl)cc2F)c1=O
[out] 4

====

Assay: Metabolic stability in mouse liver microsome assessed as intrinsic clearance pretreated for 5 mins followed by NADPH addition and measured upto 60 mins by HPLC-MS/MS analysis
Assay type: ADME
Conditions: liver microsomes, time < 65 min, read-out: CLH
measured metric: CLint scaled (mL/min/kg)
Return type: number; implicit unit mL/min/kg.

CCn1c(CO)nn(-c2nc(O[C@@H](C)C(F)(F)F)c(C(=O)Nc3c(C)cnc(OC)c3Cl)cc2F)c1=O: 5.5

[in] Please indicate CLint scaled recorded for CCn1c(CO)nn(-c2nc(O[C@@H](C)C(F)(F)F)c(C(=O)Nc3c(C)ccnc3Cl)cc2F)c1=O
[out] 5.7

====

Test: Metabolic stability in human liver microsome assessed as intrinsic clearance pretreated for 5 mins followed by NADPH addition and measured upto 60 mins by HPLC-MS/MS analysis
Format: ADME
Conditions: microsomes, 1.083 h, time < 65 min
Entries annotated with measured CLH
Return type: number; implicit unit µL/min/mg.

CCn1c(CO)nn(-c2nc(O[C@@H](C)C(F)(F)F)c(C(=O)Nc3c(F)cccc3Cl)cc2F)c1=O: 10

[in] Please indicate CLH recorded for CCn1c(CO)nn(-c2nc(O[C@@H](C)C(F)(F)F)c(C(=O)Nc3c(Cl)ccnc3Cl)cc2F)c1=O
[out] 14

[in] Please indicate CLH recorded for CCn1c(CO)nn(-c2nc(O[C@@H](C)C(F)(F)F)c(C(=O)Nc3ncccc3Cl)cc2F)c1=O
[out] 9.1

[in] Please indicate CLH recorded for CCn1c(CO)nn(-c2nc(O[C@@H](C)C(F)(F)F)c(C(=O)Nc3c(C)ccnc3F)cc2F)c1=O
[out] 14

====

Biological target: Dihydroorotate dehydrogenase (quinone), mitochondrial (Homo sapiens, UniProt Q02127)
Sequence (Q02127 whole entry): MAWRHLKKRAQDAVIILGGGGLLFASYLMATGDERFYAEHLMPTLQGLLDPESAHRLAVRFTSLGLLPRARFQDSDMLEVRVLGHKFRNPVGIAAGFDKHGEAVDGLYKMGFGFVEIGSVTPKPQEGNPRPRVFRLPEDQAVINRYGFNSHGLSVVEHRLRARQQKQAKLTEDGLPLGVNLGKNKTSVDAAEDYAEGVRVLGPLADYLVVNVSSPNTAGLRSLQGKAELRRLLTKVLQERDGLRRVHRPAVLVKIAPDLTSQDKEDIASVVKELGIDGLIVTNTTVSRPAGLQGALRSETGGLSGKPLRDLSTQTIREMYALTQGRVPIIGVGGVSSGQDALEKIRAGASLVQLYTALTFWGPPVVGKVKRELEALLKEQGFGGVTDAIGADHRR
pIC50: −log10 of the molar value.
Mark YES for reported pIC50 of 8 or greater; mark NO for anything smaller.

CCn1c(CO)nn(-c2nc(O[C@@H](C)C(F)(F)F)c(C(=O)Nc3c(Cl)ccnc3Cl)cc2F)c1=O: YES

Now for another entry.
[in] Identify whether the reported pIC50 of the following compound is 8 or greater: CCn1c(CO)nn(-c2nc(O[C@@H](C)C(F)(F)F)c(C(=O)Nc3c(C)cnc(OC)c3C)cc2F)c1=O
[out] YES

====

Entries annotated with measured efflux ratio
Test system: MDR1
Assay: Efflux ratio of apparent permeability across basolateral to apical side over apical to basolateral side in dog MDCK-MDR1 cells
Type: ADME, cell-based, Canis lupus familiaris

Past entries and their recorded results:
CCn1c(CO)nn(-c2nc(O[C@@H](C)C(F)(F)F)c(C(=O)Nc3c(C)cnc(OC)c3Cl)cc2F)c1=O: > 30
CCn1c(CO)nn(-c2nc(O[C@@H](C)C(F)(F)F)c(C(=O)Nc3cc(OC)ncc3C)cc2F)c1=O: 17
CCn1c(CO)nn(-c2nc(O[C@@H](C)C(F)(F)F)c(C(=O)Nc3c(C)cnc(OC)c3C)cc2F)c1=O: > 30
CCn1c(CO)nn(-c2nc(O[C@@H](C)C(F)(F)F)c(C(=O)Nc3c(C)cc(OC)nc3Cl)cc2F)c1=O: > 30

[in] Please indicate efflux ratio recorded for CCn1c(CO)nn(-c2nc(O[C@@H](C)C(F)(F)F)c(C(=O)Nc3c(F)cnc(OC)c3C#N)cc2F)c1=O
[out] > 30

====

Entries annotated with measured solubility
Test: Solubility of compound at pH 7 by HPLC analysis
Format: physicochemical
Conditions: buffer

CCn1c(CO)nn(-c2nc(O[C@@H](C)C(F)(F)F)c(C(=O)Nc3c(C)ccnc3F)cc2F)c1=O: 61 µM

[in] Please indicate solubility recorded for CCn1c(CO)nn(-c2nc(O[C@@H](C)C(F)(F)F)c(C(=O)Nc3c(C)ccnc3Cl)cc2F)c1=O
[out] > 400 µM

[in] Please indicate solubility recorded for CCn1c(CO)nn(-c2nc(O[C@@H](C)C(F)(F)F)c(C(=O)Nc3c(F)cnc(OC)c3Cl)cc2F)c1=O
[out] < 4 µM

[in] Please indicate solubility recorded for CCn1c(CO)nn(-c2nc(O[C@@H](C)C(F)(F)F)c(C(=O)Nc3cccnc3Cl)cc2F)c1=O
[out] < 4 µM

====

Assay: Stability in human hepatocytes assessed as intrinsic clearance measured per 10^6 cells incubated upto 120 mins by LC-MS/MS analysis
Type: ADME, cell-based, Hepatocyte
Settings: 2 h
measured metric: CLH

Past entries and their recorded results:
CCn1c(CO)nn(-c2nc(O[C@@H](C)C(F)(F)F)c(C(=O)Nc3c(C)ccnc3Cl)cc2F)c1=O: < 1.9 µL/min/1e6 cells
CCn1c(CO)nn(-c2nc(O[C@@H](C)C(F)(F)F)c(C(=O)Nc3c(C)ccnc3C(F)F)cc2F)c1=O: > 400 µL/min/1e6 cells

[in] Please indicate CLH recorded for CCn1c(CO)nn(-c2nc(O[C@@H](C)C(F)(F)F)c(C(=O)Nc3c(Cl)ccnc3C)cc2F)c1=O
[out] > 400 µL/min/1e6 cells
